molecular target: HLA-B*45:06; test: IEDB peptide-MHC binding, purified MHC/competitive/fluorescence; filed as Kd, often an IC50 or EC50 that approximates it; bounds were set here for any values at or beyond the usual limits of such assays; settings: source organism: Yersinia pestis CO92
outcome-measure: pKd
API: returns pKd as number; meaning -log10 of concentration in mol/L.

Task: Indicate its recorded pKd; the sequence in question is YQLEMYHPI
Output: 5.49

* * *

target: HLA-B*83:01; assay: IEDB peptide-MHC binding, purified MHC/competitive/fluorescence; filed as Kd, often an IC50 or EC50 that approximates it; bounds were set here for any values at or beyond the usual limits of such assays; conditions: source organism: Mycobacterium tuberculosis variant bovis BCG str. Pasteur 1173P2
outcome-measure: Kd

Task: Indicate its recorded Kd; the sequence in question is RPRLHSISF
Output: 45 nM

* * *

biological target: HLA-B*51:01; experiment: IEDB peptide-MHC binding, purified MHC/direct/fluorescence; filed as Kd, often an IC50 or EC50 that approximates it; bounds were set here for any values at or beyond the usual limits of such assays; settings: source organism: Vibrio vulnificus
pKd: −log10 of the molar value.
outcome-measure: pKd

Task: Please indicate recorded pKd of YLRKHIRAL measured with HLA-B*51:01.
Output: ≤ 4.70

* * *

biological target: HLA-A*11:01; test: IEDB peptide-MHC binding, purified MHC/direct/fluorescence; filed as Kd, often an IC50 or EC50 that approximates it; bounds were set here for any values at or beyond the usual limits of such assays; settings: source organism: Escherichia coli O157:H7
I'd be grateful if you could share measured Kd for these entries.

Task: Indicate its recorded Kd; the sequence in question is WLSVIAFGK
Output: 2240 nM

Task: Indicate its recorded Kd; the sequence in question is LLDPLYFEV
Output: ≥ 20000 nM

Task: Indicate its recorded Kd; the sequence in question is VTRQIHNPR
Output: 1860 nM

* * *

molecular target: HLA-B*57:01; test: IEDB peptide-MHC binding, purified MHC/competitive/radioactivity; filed as Kd, often an IC50 or EC50 that approximates it; bounds were set here for any values at or beyond the usual limits of such assays; settings: source organism: Dengue virus 2 Jamaica/1409/1983
outcome-measure: Kd (µM)
Quick note: give the figure in µM, leave out the unit.

Task: Indicate its recorded Kd; the sequence in question is AASIILEFFL
Output: 2.27

* * *

molecular target: HLA-A*30:02; experiment: IEDB peptide-MHC binding, purified MHC/competitive/radioactivity; filed as Kd, often an IC50 or EC50 that approximates it; bounds were set here for any values at or beyond the usual limits of such assays; settings: source organism: Dengue virus 2 Peru/IQT2913/1996
outcome-measure: Kd

Task: Indicate its recorded Kd; the sequence in question is SYAQMWSLMY
Output: ≥ 69.7 µM

* * *

target: HLA-B*07:02; test: IEDB peptide-MHC binding, purified MHC/competitive/radioactivity; filed as Kd, often an IC50 or EC50 that approximates it; bounds were set here for any values at or beyond the usual limits of such assays; conditions: source organism: Triticum aestivum
outcome-measure: Kd (µM)
Quick note: give the figure in µM, leave out the unit.

Task: Please indicate recorded Kd of QPFLQPQL measured with HLA-B*07:02.
Output: 0.349

* * *

molecular target: HLA-B*44:02; test: IEDB peptide-MHC binding, purified MHC/direct/fluorescence; filed as Kd, often an IC50 or EC50 that approximates it; bounds were set here for any values at or beyond the usual limits of such assays; settings: source organism: Amur virus
outcome-measure: Kd

Task: Indicate its recorded Kd; the sequence in question is SEGGIFNIT
Output: ≥ 20 µM
